Assay: Restrictive medium S. cerevisiae growth inhibition, OD615, pilot screen of yeast lifespan reduction project, restrictive growth control (AID 706);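 also: modified DeaD lifespan yeast strain shifted to restrictive glucose medium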
Conditions: OD615, 48 h, at 10 µM
Active and inactive are the calls of the source.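 The calls were made as follows: active = growth inhibition above a set limit, 3 SD over mean compound inhibition, in both replicates (cut at about 43% in these data); inconclusive = above the limit in only one replicate; inactive = at or below the limit in both replicates.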
Bench note: report the call from y (active), n (inactive)

Completed entries (count: 8):
[ask] Please state the recorded outcome for this compound: `COc1ccc(-n2c(Cc3cccn3C)nnc2SCC(=O)N2CCCC2)cc1`
[reply] y

[ask] # outcome recorded in this test, key = CCC(C)Sc1nc2c(cnn2-c2ccc(C)c(C)c2)c(=O)[nH]1 (stereo not drawn)
[reply] n

[ask] Kindly provide the recorded test outcome for the following compound: `O=c1c(N2CCOCC2)nsnc1N1CCOCC1`
[reply] n

[ask] Assay outcome for `C=CCNC(=O)C1CCN(S(=O)(=O)c2ccc(Br)cc2)CC1` : what was it?
[reply] n

[ask] Could you kindly confirm the outcome this assay logged for `CCS(=O)(=O)Nc1cc(-c2nc3cccnc3s2)ccc1C` ?
[reply] n

[ask] Per the assay record, what outcome was assigned to COc1ccccc1N(C(=O)NCc1ccccc1)C1=NCC(C)S1 (stereo not drawn) ?
[reply] n

[ask] Give the logged outcome of this assay for the following compound: `COc1ccccc1-c1coc2cc(O)cc(O)c2c1=O`
[reply] n

[ask] Recorded test call requested for `C=CCn1c(=N)c(C(=O)OCC)cc2c(=O)n3cc(C)ccc3nc21`
[reply] n

New cases:
[ask] Outcome? `COc1ccc(CCNS(=O)(=O)c2ccc3c(c2)oc(=O)n3C)cc1OC`
[reply] n

* * *

Experiment: Restrictive medium S. cerevisiae growth inhibition, OD615, pilot screen of yeast lifespan reduction project, restrictive growth control (AID 706);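 also: modified DeaD lifespan yeast strain shifted to restrictive glucose medium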
Conditions: OD615, 48 h, at 10 µM
The source made the active and inactive calls.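 The calls were made as follows: active = growth inhibition above a set limit, 3 SD over mean compound inhibition, in both replicates (cut at about 43% in these data); inconclusive = above the limit in only one replicate; inactive = at or below the limit in both replicates.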
Just give me one of these, please: Y (active), N (inactive)

[ask] Status in this test for `COc1cc(Br)c(CC(=O)O)cc1OC` ?
[reply] N

New cases:
[ask] Just curious, what result did COc1ccc(C2CC(c3ccc(Cl)c(Cl)c3)Nc3nc(N)nn32)cc1 (stereo not given) get here?
[reply] N

[ask] In this assay, the call recorded for `CC(C)CCn1c(SCC(N)=O)nc2c1c(=O)n(C)c(=O)n2C` was what?
[reply] N

[ask] Kindly provide the recorded test outcome for the following compound: `N#Cc1ccc(CSCC(=O)O)cc1`
[reply] N

[ask] Give the logged outcome of this assay for the following compound: `NC(=O)C1CCN(c2ncnc3c2c(-c2ccccc2)cn3-c2ccccc2)CC1`
[reply] N

[ask] Identify the outcome logged in this assay for the compound shown: Cc1ccc(C2c3c(oc4cc(C)c(C)cc4c3=O)C(=O)N2CCCN2CCOCC2)cc1 (stereo not given)
[reply] N

[ask] Test call, this compound: `O=C(NCc1ccc2c(c1)OCO2)c1cc2c(s1)CSC2`
[reply] N

[ask] Short answer needed: outcome of this test for `Cc1noc(C)c1CSCC(=O)OCC(=O)NC1CCCCC1` ?
[reply] N

* * *

Recorded inhibition values for a group of compounds are listed next.
Experiment: inhibitors of the yeast RAM network, pilot screen, dse1pr::URA3 reporter, 5-FOA selection (AID 869);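 also: 0% = DMSO wells with no growth and 100% = 10 µM 1-NA-PP1 with full growth; RAM network block rescues cells from 5-FOA so hits raise OD615 growth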
Settings: S. cerevisiae dse1pr::URA3 5-FOA growth, OD615, 2 d; at 10 µM; hits give high values; strain carries analog-sensitive mutant Cbk1 kinase
Numeric answer only, unit % assumed.

// worked examples, inhibition included
[ask] Suppose we examine the compound `Cn1c(CCNC(=O)c2ccc(F)cc2)nc2ccccc21` ; what inhibition value has been reported?
[reply] 1.2

[ask] Given COC(=O)C1(C)Nc2ccccc2C(=O)N1c1ccccc1OC (centres undefined) , state its recorded inhibition.
[reply] 1.97

[ask] GET /values?readout=inhibition&item= `O=C(CS(=O)(=O)c1cn(Cc2ccccc2Cl)c2ccccc12)N1CCOCC1`
[reply] 3.23

[ask] So what does the record say about inhibition for `Cc1onc(-c2ccccc2)c1C(=O)Nc1ccccc1C#N` ?
[reply] 1.89

[ask] Which value of inhibition has been reported for `O=C(Cn1ncc2c(=O)oc3ccccc3c21)N(Cc1ccco1)C1CCCCC1` in the records?
[reply] 2.71

From here, focus on the item given below.
[ask] Look up inhibition for this compound: `Cc1cc(NS(=O)(=O)c2ccccc2)c(C)c(Cl)c1O`
[reply] 2.38

* * *

Test: inhibitors of the yeast RAM network, pilot screen, dse1pr::URA3 reporter, 5-FOA selection (AID 869);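 also: 0% = DMSO wells with no growth and 100% = 10 µM 1-NA-PP1 with full growth; RAM network block rescues cells from 5-FOA so hits raise OD615 growth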
Conditions: S. cerevisiae dse1pr::URA3 5-FOA growth, OD615, 2 d; at 10 µM; hits give high values; strain carries analog-sensitive mutant Cbk1 kinase
reported metric: inhibition (%)
Respond numerically; units are % and should not be typed.

Here is how some molecules turned out for inhibition.
[ask] What value of measured inhibition is listed for `O=C(c1c(Cl)nc2sccn12)N1CCCc2ccccc21` ?
[reply] 2.37

[ask] Consider the molecule `O=C(CCN1C(=O)c2ccccc2C1=O)Nc1ccncc1` and give its measured inhibition.
[reply] 1.6

Continue with the molecule presented below.
[ask] Requested field: inhibition. Item: `Cn1c(/N=C/c2cccs2)nc2ccccc21`
[reply] 2.46

* * *

Assay: Restrictive medium S. cerevisiae growth inhibition, OD615, pilot screen of yeast lifespan reduction project, restrictive growth control (AID 706);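 also: modified DeaD lifespan yeast strain shifted to restrictive glucose medium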
Conditions: OD615, 48 h, at 10 µM, hits give high values
Think of -10% as a floor: if growth inhibition stands on it or above, it is Condition met; beneath it, Condition not met.

A selection of reference data follows.
[ask] Kindly determine if growth inhibition recorded for `N=c1oc2ccccc2cc1-c1nc2ccccc2c(=O)[nH]1` is above or exactly -10%.
[reply] Condition met

[ask] Textbook exercise: given the entry `Cc1ccc(C(C)C)c(OCC(=O)N2CCOCC2)c1` , state whether its growth inhibition is greater than or equal to -10%.
[reply] Condition not met

Next:
[ask] Hello, I need to know if `CCOC(=O)N1CCC(C(=O)Nc2ccc(OCC)cc2)CC1` has measured growth inhibition not below -10%. Thanks!
[reply] Condition met

[ask] Assess whether reported growth inhibition for `CCCn1c(CCNC(=O)c2cccs2)nc2ccccc21` sits at -10% or higher.
[reply] Condition met

[ask] Hi team, for `C=CCn1c(SCCC#N)nnc1-c1ccncc1` , is the recorded growth inhibition at or above -10%?
[reply] Condition not met

[ask] State whether the measured growth inhibition reaches -10%, counting equality as reaching it, for `COc1ccc(S(=O)(=O)Cc2ccc(C(=O)NC(C)C)o2)cc1`
[reply] Condition met

* * *

Test: growth suppression of beta-catenin knockout HCT116, pilot screen, human colon tumor cells (AID 823);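 also: 0% = wells killed by 20 µM Hyamine and 100% = untreated DMSO cell wells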
Conditions: CellTiter-Glo, 60 h, at 10 µM
Results filed as inconclusive are left out. Activity calls are given as the source filed them.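 How the source made its calls: active means cell viability at or below a set limit in both duplicate runs, the limit being the all-compound median minus 4 SD (cut at about 23% in these data, passing the limit was not always enough); inconclusive means no clear call, values can overlap the other calls; inactive means the rest.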
Return exactly one item of Y for active, N for inactive

Please review the entries below; each comes with its answer.
[ask] What classification did CCn1cc(C(=O)NCCCN2CC(C)CC(C)C2)c(=O)c2cc(S(=O)(=O)N(C)C)ccc21 (configuration not stated) end up with in this test?
[reply] N

[ask] Assay outcome for `O=C(Nc1ccccc1C(=O)NCc1ccco1)c1ccccc1` : what was it?
[reply] N

[ask] Tell me the recorded outcome of this test for `CS(=O)(=O)N1CCN(c2nc(-c3ccccc3)cs2)CC1` .
[reply] N

[ask] Lab log entry: `Cc1onc(-c2ccccc2)c1C(=O)Nc1ccc2c(c1)OCCO2` — outcome as called in the assay?
[reply] N

[ask] # fetch the recorded call for `CCn1c(/C=N/n2cnnc2)nc2ccccc21` here
[reply] N

Further cases:
[ask] Please let me know the test result on file for `Nc1ccc(-c2nc3ccccc3[nH]2)cc1` .
[reply] N

[ask] In this assay, the call recorded for O=C1CC(c2ccco2)Sc2nc3ccccc3n21 (configuration not stated) was what?
[reply] N

[ask] // outcome(item) with item = `CC(=O)Nc1nnc(-c2ccc3c(c2)CCCC3)o1`
[reply] N

[ask] Please share the test call associated with `Cn1c(=O)oc2cc(S(=O)(=O)NCCCN3CCCC3=O)ccc21` .
[reply] N

[ask] Could you please tell me the result logged for COC(=O)C1CCN(C(c2cc(OC)c(OC)c(OC)c2)c2sc3nc(C)nn3c2O)CC1 (configuration not stated) in this assay?
[reply] N

[ask] Record lookup: outcome of this test for O=C1CC(c2ccco2)CC2=C1C1c3ccccc3C(=O)N1c1ccccc1N2 (configuration not stated) ?
[reply] Y

[ask] Could you kindly confirm the outcome this assay logged for `O=C(Nc1sc2c(c1C(=O)O)CCCCC2)c1ccco1` ?
[reply] N

[ask] Tell me the recorded outcome of this test for `COc1ccc(CNC(=O)C2CCN(S(=O)(=O)c3cccc4cccnc34)CC2)cc1` .
[reply] N

[ask] Status in this test for `O=c1[nH]c2ccc(Cl)cc2c(-c2ccccc2)c1N1CCOCC1` ?
[reply] N

[ask] Could you check what this test reported for `Cc1nnc(NC(=O)CSC2CCCCC2)s1` ?
[reply] N

[ask] Hi team, can someone confirm the assay call for `CC(=O)Nc1ccc(NC2(C)C(=O)c3ccccc3C2=O)cc1` ?
[reply] N

[ask] // param item: `CC(C)(C)NC(=O)Cn1c(=O)oc2cc(S(=O)(=O)N3CCc4ccccc43)ccc21` ; yields the recorded call
[reply] N

[ask] Dear all, I need the recorded test outcome for `Cc1nccc2[nH]c(=O)c(C(=O)NC3CCN(Cc4ccccc4)CC3)cc12` , thank you.
[reply] N

[ask] Outcome? `Cn1cccc1Cc1nnc(SCC(=O)NC2CCCCC2)n1-c1ccc(F)cc1`
[reply] N

[ask] How did this test come out for `NC(=O)C1(N2CCCCC2)CCN(S(=O)(=O)c2cc(Cl)ccc2Cl)CC1` ?
[reply] N

[ask] Outcome? `Cn1c(C(=O)N2CCN(C3CCCCC3)CC2)cc2c(=O)n(C)c3ccccc3c21`
[reply] N

[ask] // param item: `O=C(Nc1sc2c(c1C(=O)O)CCCC2)c1cccs1` ; yields the recorded call
[reply] N
